The measured values listed here are drawn from ChEMBL document CHEMBL1153387.

Listing: log10(Ki) of selected compounds
# MEASUREMENT_TARGET: Neurotensin receptor type 1 (Homo sapiens)
# Sequence (P30989 whole entry): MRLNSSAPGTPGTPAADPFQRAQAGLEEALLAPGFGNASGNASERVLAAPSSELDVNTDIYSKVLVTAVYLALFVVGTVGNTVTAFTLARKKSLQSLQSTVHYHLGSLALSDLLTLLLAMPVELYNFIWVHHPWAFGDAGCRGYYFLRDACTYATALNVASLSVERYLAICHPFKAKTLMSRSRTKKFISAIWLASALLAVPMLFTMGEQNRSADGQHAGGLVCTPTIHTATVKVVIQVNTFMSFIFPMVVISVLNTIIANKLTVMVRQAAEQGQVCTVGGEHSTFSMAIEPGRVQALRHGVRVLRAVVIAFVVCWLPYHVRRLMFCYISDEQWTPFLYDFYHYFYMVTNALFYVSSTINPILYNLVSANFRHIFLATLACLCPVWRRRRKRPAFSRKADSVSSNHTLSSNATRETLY
# ASSAY: Displacement of [125I]I-Tyr(3)NT from human NTR1
Non-standard residues stand in square brackets, D forms with d. Residues, ends and D or L forms follow the SMILES beside them. *: point of attachment. Pentanoyl(5-guanidino) = NC(N)=NCCCCC(=O)*; X1 = [N-]=[N+]=N[C@@H](CCCNC(=N)N)C(=O)*; αMeR = C[C@](N)(CCCNC(=N)N)C(=O)O; Tle = CC(C)(C)[C@H](N)C(=O)O; Ahp = NCCCCCCC(=O)O
// units: nM (pre-log); metric: Ki; scale: log10

In the examples that follow, each entry is paired with its recorded log10(Ki).
CC[C@@H](C)[C@H](NC(=O)[C@H](Cc1ccc(O)cc1)NC(=O)[C@@H]1CCCN1C(=O)[C@H](CCCN=C(N)N)NC(=O)[C@H](CCCN=C(N)N)N=[N+]=[N-])C(=O)N[C@@H](CC(C)C)C(=O)O = -0.14
CC(C)C[C@H](NC(=O)[C@@H](NC(=O)[C@H](Cc1c[nH]c2ccccc12)NC(=O)[C@@H]1CCCN1C(=O)[C@H](CCCCN)NC(=O)[C@@](C)(N)CCCNC(=N)N)C(C)(C)C)C(=O)O (H-[αMeR]KPW[Tle]L-OH) = 3.34
CC(C)C[C@H](NC(=O)[C@@H](NC(=O)[C@H](Cc1ccc(O)cc1)NC(=O)[C@@H]1CCCN1C(=O)[C@H](CCCNC(=N)N)NC(=O)CCCCCCN)C(C)(C)C)C(=O)O (H-[Ahp]RPY[Tle]L-OH) = 0.48
CC(C)C[C@H](NC(=O)[C@@H](NC(=O)[C@H](Cc1c[nH]c2ccccc12)NC(=O)[C@@H]1CCCN1C(=O)[C@H](CCCCN)NC(=O)CCCCNC(=N)N)C(C)(C)C)C(=O)O ({Pentanoyl(5-guanidino)}-KPW[Tle]L-OH) = 2.80

As a next step, examine the compound that follows.
Exercise: Using the record for CC(C)C[C@H](NC(=O)[C@@H](NC(=O)[C@H](Cc1c[nH]c2ccccc12)NC(=O)[C@@H]1CCCN1C(=O)[C@H](CCCCN)NC(=O)[C@H](CCCNC(=N)N)N=[N+]=[N-])C(C)(C)C)C(=O)O (X1-KPW[Tle]L-OH) , report its log10(Ki).
Solution: 2.02
